Origin of the recorded values: paper PMC12147034

tgt: BaF3/TEL-VEGFR2 (B/TV) cells (Homo sapiens, UniProt P35968+P41212)
Construct: fused to VEGFR2 (KDR) amino acids 807–1356; TEL (ETV6) amino acids 1–336 (N-terminal fusion partner); FLAG
Sequence (P41212+P35968 fused): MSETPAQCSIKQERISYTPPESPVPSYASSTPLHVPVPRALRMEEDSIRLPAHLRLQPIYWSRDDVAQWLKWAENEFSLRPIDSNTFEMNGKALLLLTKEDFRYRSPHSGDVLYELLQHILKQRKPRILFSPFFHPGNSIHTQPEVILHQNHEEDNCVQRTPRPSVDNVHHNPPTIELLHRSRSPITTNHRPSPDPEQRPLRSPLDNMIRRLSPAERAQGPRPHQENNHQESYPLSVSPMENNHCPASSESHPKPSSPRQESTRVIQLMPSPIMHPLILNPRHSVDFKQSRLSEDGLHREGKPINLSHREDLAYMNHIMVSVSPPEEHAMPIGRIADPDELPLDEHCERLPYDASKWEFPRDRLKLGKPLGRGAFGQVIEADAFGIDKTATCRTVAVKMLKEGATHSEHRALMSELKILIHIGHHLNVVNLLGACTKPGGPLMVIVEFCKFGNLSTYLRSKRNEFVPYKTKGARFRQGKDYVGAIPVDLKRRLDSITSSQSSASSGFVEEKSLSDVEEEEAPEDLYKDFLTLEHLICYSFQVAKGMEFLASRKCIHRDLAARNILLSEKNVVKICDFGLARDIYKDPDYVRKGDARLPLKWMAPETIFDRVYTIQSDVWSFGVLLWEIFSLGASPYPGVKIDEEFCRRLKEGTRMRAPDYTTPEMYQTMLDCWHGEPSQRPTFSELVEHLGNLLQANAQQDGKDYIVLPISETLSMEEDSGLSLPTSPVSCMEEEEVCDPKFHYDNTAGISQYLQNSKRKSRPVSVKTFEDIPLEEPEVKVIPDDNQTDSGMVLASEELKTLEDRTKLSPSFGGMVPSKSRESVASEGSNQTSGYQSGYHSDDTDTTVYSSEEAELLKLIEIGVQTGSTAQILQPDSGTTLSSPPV
protocol_summary: Cell viability assay (CellTiter-Glo, 3 days) in B/TV cells
setup_conditions: TEL-VEGFR2-dependent BaF3 cells, 3 days; read-out: IC50 B/TV WT
Assignment: determine reported pIC50 for the given molecules.
Numbers only, as −log10 of the molar value.

Request: Consider the molecule `Cc1n[nH]c2ncc(C#Cc3cncc(C(=O)Nc4ccc(CN5CCN(C)CC5)c(C(F)(F)F)c4)c3)cc12` . State its measured pIC50.
Response: 8.25

Request: Quote pIC50 reported for COc1cc2cc(-c3ccc(CC(=O)Nc4cc(C(C)(C)C(F)(F)F)no4)cn3)cnc2cc1OC [Zeteletinib, reference compound] please.
Response: 6.09

Request: Kindly indicate its recorded pIC50. Item: `CCOc1ccc2ncc(C#Cc3cncc(C(=O)Nc4ccc(CN5CCN(C)CC5)c(C(F)(F)F)c4)c3)n2n1`
Response: 8.16

Report pIC50 for every entry below.
1. CN1CCN(Cc2ccc(NC(=O)c3cncc(C#Cc4cnc5cccnn45)c3)cc2C(F)(F)F)CC1
2. CO[C@]1(C(=O)N[C@@H](C)c2ccc(-n3cc(F)cn3)nc2)CC[C@H](c2nc(C)cc(Nc3cc(C)[nH]n3)n2)CC1

Response:
[8.13, 6.31]
